Measurement description: Aqueous solubility of the compound
Format: physicochemical
Reported endpoint: solubility (µg/mL)
Give the number; µg/mL is assumed, so skip it.

Recorded solubility of "NC(=O)c1ccsc1NC(=O)Cn1nc(C(F)(F)F)c2c1CCCC2" , please. 10

----------
Measurement description: […]
Reported endpoint: pEC50

O=C(Cn1nc(C(F)(F)F)c2c1CCCC2)Nc1sc2c(c1C(=O)NCCO)CCCC2 :: 7.3
NC(=O)c1c(NC(=O)Cn2nc(C(F)(F)F)c3c2CCCC3)sc2c1CCCC2 :: 6.7
NC(=O)c1c(NC(=O)Cn2nc(C(F)(F)F)cc2C(F)(F)F)sc2c1CCCC2 :: 5.8
NC(=O)c1c(NC(=O)Cn2nc(C(F)(F)F)c3cnccc32)sc2c1CCCC2 :: 6.4
